Source: the supplement of paper PMC12632987

Give median log2 fold change for every item shown.
- tested_target: GABARAPL2, P60520
- Sequence (P60520 whole entry, the tested form may be a part): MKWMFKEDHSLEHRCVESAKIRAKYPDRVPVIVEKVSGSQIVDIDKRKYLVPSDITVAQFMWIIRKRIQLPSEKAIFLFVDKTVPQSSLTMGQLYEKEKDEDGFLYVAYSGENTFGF
- experimental_details: median log2 fold change of GCK-ALFA target abundance (FLAG IP / Myc IP barcode read proportion) (log2 ratio); each designed protein is fused to an ALFA-tag nanobody in HEK293 cells to bring the named protein to FLAG-tagged glucokinase (GCK); Myc marks an untargeted standard; higher = target protein stabilised (more abundant)
- study_conditions: target protein: 3xFLAG-MCP-GCK-ALFA reporter; HEK293 landing pad (RPLP)
Numbers only.

I would be grateful if you could provide median log2 fold change for each of the following entries.
1. GBRAPL2_0_7208 (protein) YKERIEEAKKLSPEEAYKALKELVKEIAEDKSISAEEREEILEEIIELAYEIYKKEKTEEAEKAFDEIVDLAVKAAAKVDPNLAAYIASFGGSLIMEAES
2. GBRAPL2_151_7324 (protein) SELEKLLKELKKLLEELEKLVKEASEKYPEYSIELETLAGGAEADILLAEEAKNDEEKRKYLKRAAELIADAAKLIAEITGDERAKKLAEEAKKILKELE

Output line:
[0.152, 0.242]

Quick request: median log2 fold change for each listed item, please.
1. GBRAPL2_53_7354 (protein) MIAIEIGHPNKEVMVEALKKVFEIIKKAGEKVEVEVTLEDGTVIKLEGSVEEIEEKVLELAKKQPILVTIYLPEKNEELVEEIEDAALEAGATVSVEELP
2. GBRAPL2_54_7375 (protein) MKKVEIEIDYIVEGNEEELKKVREVLKKELEKMKKELEEKFNATVEVSEEYENGVLTVTVKVIVDEEHVDEVIDLALETAERVSKETGVKVNVVIGIKEL
3. GBRAPL2_0_7222 (protein) MEELKEEMLKLSIEEASEKAVKTIKEAVESGKYSLEEIAELIEEMAEVIGELLKKEKKEESVDIAIEAADKIREILEKVDPNLAAYAYSEIGAEIMEAEE
4. GBRAPL2_53_7359 (protein) MIEIDIAHPDKAVVKEAADKIFDVVEENGVEVEVTVTDENGTVTKLTGSVEEIREKVTAMAAKQPVLITIKLPDSAKETAEKIEDIALEKGATVSREELE
5. GBRAPL2_128_7271 (protein) KKIVEIDVDIKDEESYNLALEILDEISENSSPEVKKLADAAKDLVESAKEEGFGENVTAVDILSDEEAALLQKIYEEIKKKYGKEKVNSVVKLDISDVPP
6. GBRAPL2_0_7253 (protein) KEELLEKLLSLSIEEAIKEVKKLAEEVIKYIKEKPEEGLKKAEELAEIFAELIEARKDEKLIKAVEEAIEKIVEEAKKIDPNEAAYIASIIGSALYEVES

Output line:
1. 0.166
2. -0.389
3. 0.133
4. 0.276
5. -0.852
6. 0.152
